The measurements presented in this section are drawn from patent US8912336B2.

Molecular target: human mGluR4 (Homo sapiens, UniProt Q14833)
Sequence (Q14833 33-912): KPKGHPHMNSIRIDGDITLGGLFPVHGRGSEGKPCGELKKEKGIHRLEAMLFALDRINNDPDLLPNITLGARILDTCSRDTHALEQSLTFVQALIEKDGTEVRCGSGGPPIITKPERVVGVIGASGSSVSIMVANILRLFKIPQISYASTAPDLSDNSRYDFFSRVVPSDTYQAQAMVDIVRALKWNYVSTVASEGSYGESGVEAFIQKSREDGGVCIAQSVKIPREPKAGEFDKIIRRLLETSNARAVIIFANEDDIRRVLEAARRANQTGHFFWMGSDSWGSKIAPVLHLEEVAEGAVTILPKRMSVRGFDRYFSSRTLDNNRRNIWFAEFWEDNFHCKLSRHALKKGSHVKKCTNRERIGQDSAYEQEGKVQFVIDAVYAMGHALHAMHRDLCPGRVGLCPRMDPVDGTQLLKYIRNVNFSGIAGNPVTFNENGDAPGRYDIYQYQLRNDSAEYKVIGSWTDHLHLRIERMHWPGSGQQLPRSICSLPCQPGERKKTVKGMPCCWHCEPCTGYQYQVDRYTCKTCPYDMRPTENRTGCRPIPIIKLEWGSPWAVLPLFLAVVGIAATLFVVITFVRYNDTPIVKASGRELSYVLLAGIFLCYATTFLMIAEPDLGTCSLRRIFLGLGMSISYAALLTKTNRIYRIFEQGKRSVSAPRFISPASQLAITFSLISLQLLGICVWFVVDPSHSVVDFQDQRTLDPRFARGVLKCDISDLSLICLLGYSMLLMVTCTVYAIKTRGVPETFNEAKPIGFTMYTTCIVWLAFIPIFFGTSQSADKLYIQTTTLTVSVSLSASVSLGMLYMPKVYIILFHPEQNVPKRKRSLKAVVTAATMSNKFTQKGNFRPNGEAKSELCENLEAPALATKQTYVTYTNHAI
Assay: Potentiation of human mGluR4 in transfected CHO cells, Ca2+-sensitive fluorescent dye, EC20 agonist
Conditions: values in E-notation, unit inferred, read-out: hEC50
parameter.measured: pEC50
Remember, pEC50 is on a log scale: it is -log10 of the molar concentration.

# structure, pEC50
rows = [
    ("O=S(=O)(Cc1cccc(Cl)c1F)c1ccc2[nH]c(-c3ccccn3)nc2c1", 6.71),
]

Input line: // fetch pEC50 given entry `Cc1cccc(C(=O)Nc2ccc(S(=O)(=O)Cc3ccccc3Cl)cc2)n1`
Output line: 5.27

Input line: // fetch pEC50 given entry `O=S(=O)(Cc1ccccc1Cl)c1cc2nc(-c3ccccn3)[nH]c2cc1Cl`
Output line: 6.46

Input line: // fetch pEC50 given entry `O=S(=O)(Cc1cc(F)c(F)cc1F)c1ccc2[nH]c(-c3ccccn3)nc2c1`
Output line: 6.34

Input line: // fetch pEC50 given entry `O=S(=O)(Cc1ccccc1Cl)c1ccc2[nH]c(-c3ncc(F)cc3F)nc2c1`
Output line: 6.35
